- system under test: Metabotropic glutamate receptor 5 (Rattus norvegicus)
- assay name: Positive allosteric modification of mGlu5 receptor in rat cortical astrocytes assessed as maximal leftward shift in the EC50 of glutamate induced response upto 25 uM
- Format: cell-based
measurement kind: fold change (FC)
# answer = number (no unit)

Previously resolved entries follow.
[[record]]
molecule = "Fc1ccc(-c2noc(C3CCc4c(nnn4C4CCCC4)C3)n2)cc1 (stereo in doubt; 9)"
measurement_kind = "fold change (FC)"
measured = 10

[[record]]
molecule = "Fc1ccc(-c2noc(C3CCc4c(nnn4C4CCOC4)C3)n2)cc1 (configuration not stated)"
measurement_kind = "fold change (FC)"
measured = 4

[[record]]
molecule = "CC1(n2nnc3c2CCC(c2nc(-c4ccc(F)cc4)no2)C3)CCOCC1 (configuration not stated)"
measurement_kind = "fold change (FC)"
measured = 7

[[record]]
molecule = "CC(C)(C)n1nnc2c1CCC(c1nc(Cc3ccc(F)cc3)no1)C2 (configuration not stated)"
measurement_kind = "fold change (FC)"
measured = 7


Summary for this molecule, CC(C)(C)Cn1nnc2c1CCC(c1nc(-c3ccc(F)cc3)no1)C2 (configuration not stated) : fold change (FC) is 8

So, CC(C)(C)n1nnc2c1CCC(c1noc(-c3ccc(F)cc3)n1)C2 (configuration not stated) ? Its fold change (FC) was 5

Just so you know, measured fold change (FC) for Fc1ccc(-c2noc(C3CCc4c(nnn4C4CCCC4)C3)n2)cc1 (stereo in doubt; 10) came out at 4
